Molecular target: UniProt:P54098
Sequence (P54098 1-1239): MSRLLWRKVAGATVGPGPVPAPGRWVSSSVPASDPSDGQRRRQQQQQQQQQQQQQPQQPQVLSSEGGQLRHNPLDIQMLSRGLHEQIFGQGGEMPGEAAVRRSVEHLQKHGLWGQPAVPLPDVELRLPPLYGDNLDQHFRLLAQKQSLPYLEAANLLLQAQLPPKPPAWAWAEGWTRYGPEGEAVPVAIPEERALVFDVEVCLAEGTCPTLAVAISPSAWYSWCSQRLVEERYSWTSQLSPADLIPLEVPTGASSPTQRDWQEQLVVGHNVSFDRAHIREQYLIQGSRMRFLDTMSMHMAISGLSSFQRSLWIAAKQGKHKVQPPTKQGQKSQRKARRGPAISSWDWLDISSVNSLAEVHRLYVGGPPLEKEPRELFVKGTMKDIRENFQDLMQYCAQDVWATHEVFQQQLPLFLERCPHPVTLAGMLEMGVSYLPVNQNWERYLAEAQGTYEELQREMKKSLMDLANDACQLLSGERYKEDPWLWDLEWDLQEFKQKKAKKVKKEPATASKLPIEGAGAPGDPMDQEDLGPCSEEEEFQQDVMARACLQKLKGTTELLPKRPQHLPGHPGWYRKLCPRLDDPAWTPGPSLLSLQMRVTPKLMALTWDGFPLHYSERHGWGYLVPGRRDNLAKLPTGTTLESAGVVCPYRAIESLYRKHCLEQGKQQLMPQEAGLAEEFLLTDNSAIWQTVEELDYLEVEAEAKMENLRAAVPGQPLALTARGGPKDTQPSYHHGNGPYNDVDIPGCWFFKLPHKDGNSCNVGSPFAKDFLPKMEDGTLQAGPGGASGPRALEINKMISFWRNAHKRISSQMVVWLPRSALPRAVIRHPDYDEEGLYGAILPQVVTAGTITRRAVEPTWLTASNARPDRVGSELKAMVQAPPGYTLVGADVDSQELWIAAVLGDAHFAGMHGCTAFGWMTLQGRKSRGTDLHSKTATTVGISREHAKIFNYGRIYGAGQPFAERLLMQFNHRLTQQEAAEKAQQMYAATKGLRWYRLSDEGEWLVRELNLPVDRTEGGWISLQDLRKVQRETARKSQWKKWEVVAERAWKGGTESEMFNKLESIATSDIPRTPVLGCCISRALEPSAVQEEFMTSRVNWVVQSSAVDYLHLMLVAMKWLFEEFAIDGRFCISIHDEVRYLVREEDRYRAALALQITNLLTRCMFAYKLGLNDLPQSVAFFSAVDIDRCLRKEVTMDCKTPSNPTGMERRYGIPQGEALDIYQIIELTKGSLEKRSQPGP
Sequence (Q9UHN1 1-485 partner): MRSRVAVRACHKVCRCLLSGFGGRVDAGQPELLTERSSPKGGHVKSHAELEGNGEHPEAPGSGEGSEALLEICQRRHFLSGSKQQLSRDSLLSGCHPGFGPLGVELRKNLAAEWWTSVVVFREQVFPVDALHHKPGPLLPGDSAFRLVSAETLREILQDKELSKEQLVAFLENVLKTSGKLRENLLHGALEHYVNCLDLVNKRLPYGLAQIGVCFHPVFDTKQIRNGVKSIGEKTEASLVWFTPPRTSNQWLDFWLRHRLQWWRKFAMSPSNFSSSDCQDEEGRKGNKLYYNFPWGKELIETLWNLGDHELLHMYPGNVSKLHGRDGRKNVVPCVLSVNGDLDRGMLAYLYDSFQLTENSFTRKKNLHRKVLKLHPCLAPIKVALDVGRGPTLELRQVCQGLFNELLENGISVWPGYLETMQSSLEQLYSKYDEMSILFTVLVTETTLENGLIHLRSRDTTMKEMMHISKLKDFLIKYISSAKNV
Assay: DNA polymerization assay, wild type POLγ
Format: biochemical
Conditions: 0.1 μM dNTP, read-out: WT AC50 (μM) at 0.1 μM
Assay endpoint: log10(AC50) (log10 of the value in µM)
All values: log10 AC50 [µM].

Cc1cc(S(=O)(=O)Nc2cc(C(=O)N3CCC[C@H]3C)ccc2F)c(C)cc1Cl :: 0.00
Cc1ccc(C)c(S(=O)(=O)Nc2cccc(C(=O)N3CCCCCC3)c2)c1 :: 1.08
CC(=O)N1CCN(C(=O)c2cccc(NS(=O)(=O)c3cc(C)ccc3C)c2)CC1 :: 0.30
Cc1ccc(C)c(S(=O)(=O)Nc2cccc(C(=O)N3CCOCC3)c2)c1 :: 0.30
COCCN(C)C(=O)c1cccc(NS(=O)(=O)c2cc(C)c(Cl)cc2C)c1 :: 0.48
Cc1cnc(-c2cc(NS(=O)(=O)c3cc(C)c(Cl)cc3C)ccc2C)s1 :: 1.23

In: Answer with reported log10(AC50) of Cc1cc(S(=O)(=O)Nc2cccc(C(=O)N3CCN(C)C[C@H]3C)c2)c(C)cc1Cl
Out: 0.00

In: Hello, please tell me recorded log10(AC50) for this one: Cc1cc(S(=O)(=O)Nc2ccc(F)c(C(=O)N3CCC[C@H]3C)c2)c(C)cc1Cl
Out: 0.30

In: Write down log10(AC50) measured for item Cc1cc(S(=O)(=O)Nc2cccc(C(=O)N[C@H](C)CO)c2)c(C)cc1Cl
Out: 0.78

In: Fill in reported log10(AC50) for this entry: Cc1cnc(-c2ccc(Cl)c(NS(=O)(=O)c3cc(C)c(Cl)cc3C)c2)s1
Out: 0.70
